The following compounds are shown together with reported melting point values.

Record NS(=O)(=O)c1ccc(-c2cn(-c3nc(-c4ccc(C(F)(F)F)cc4)cc(C(F)(F)F)n3)cn2)cc1 , field melting point: 292 °C

Record Cc1cc(C)c(Cn2cc(C(=O)C(=O)NC3=CC(=O)OC3)c3ccccc32)c(C)c1 , field melting point: 288 to 290 °C

Record CN(C)c1ccc(Nc2cccc3c2C(=O)N(C2CCC(=O)NC2=O)C3=O)cc1 (stereo not drawn) , field melting point: > 260 °C

Record CC(C)(CCl)C(=O)N(O)Cc1ccccc1 , field melting point: 90 to 92 °C

Record Clc1ccc(CN2CCN=C2Cc2ccccc2)c(Cl)c1 , field melting point: 185 to 189 °C

* * *

The following compounds are shown together with reported melting point values.

- compound: "COC(=O)CCCCCOc1ccc(N=C=O)cc1"
  melting point: "47 to 50 °C"
- compound: "CN(C)Cc1ccc2cc(C(=O)Nc3ccc(-c4ccc(Cl)cc4)cc3)ccc2c1"
  melting point: "240 to 242 °C"

Attention now shifts to the item below.
Record CC1C(=O)N(c2ccccc2)C(=S)N1c1ccc(Sc2ccccc2)cc1 (stereo not drawn) , field melting point: 84 °C

* * *

attribute_measured: melting point

- compound: "COc1cccc(N(C)C(=O)C(C)Br)c1 (centres undefined)"
  melting point: "55 to 56 °C"

Record Cc1cc(O)cc(Br)c1C , field melting point: 98 to 99 °C

Record CC(C)CC1(C(CCN2C(=O)c3ccc([N+](=O)[O-])cc3C2=O)C(=O)NO)CCN(CCc2ccccc2)C1=O (centres undefined) , field melting point: 161 to 162 °C

Record COC(=O)Cn1nnnc1CCC(NC(=O)CCC(C)(NC(=O)OCc1ccccc1)C(=O)O)C(=O)OC (centres undefined) , field melting point: 64 to 65 °C

* * *

attribute_measured: melting point

In the examples that follow, each entry is paired with its recorded melting point.
- molecule: "Cc1ccn(-c2nc3ccccc3c(=O)[nH]2)n1"
  melting point: "162 to 165 °C"
- molecule: "COc1cc(CCCC2SC(=O)NC2=O)ccc1OCc1nc(-c2ccccc2)sc1C (centres undefined)"
  melting point: "149 to 150 °C"
- molecule: "Cc1cc2ncnn2c(N2CCN(C)CC2)n1"
  melting point: "95 to 98 °C"

Attention now shifts to the item below.
Record CNc1nc(-c2cccc(-c3cncc(SC)c3)c2)c2cc(OC)c(OC)cc2n1 , field melting point: 184 to 186 °C

* * *

attribute_measured: melting point

In the examples that follow, each entry is paired with its recorded melting point.
- smiles_string: "CCN(C(=O)c1cnc(N2CC(C)(C)NC2=O)nc1N)c1cccc(C(F)(F)F)c1"
  melting point: "186 to 187 °C"
- smiles_string: "COC(=O)c1c(/C=C/c2ccccc2)ccc2ccccc12"
  melting point: "68 to 71 °C"

Attention now shifts to the item below.
Record Cc1ccc2nc(Cl)c(Cl)nc2c1 , field melting point: 112 to 115 °C

* * *

The following compounds are shown together with reported melting point values.

- compound: "O=C(O)CCc1ccc(OCCN2CCCC2=O)cc1Oc1ncc(C(F)(F)F)cc1Cl"
  measured_value: "145 to 146 °C"

Record CC(C)(C)NC(=O)C1CCC2C3CC=C4C=C(C#N)CCC4(C)C3CCC12C (stereo unspecified) , field melting point: 198 to 200 °C

Record COc1ccc(CNc2c(Cl)cnn(-c3ccccc3)c2=O)cc1 , field melting point: 125 to 126 °C

Record CCN(CC)C(=O)c1ccc2ccccc2c1-c1ccc2ccccc2c1 , field melting point: 159 to 161 °C

Record CCc1ccc(CCOc2cccc(NC3SC(=O)NC3=O)c2)nc1 (stereo unspecified) , field melting point: 140 to 142 °C
